Value source: patent US8846928B2

target: full length active recombinant SYK enzyme (Homo sapiens, UniProt P43405); construct: full length active recombinant SYK enzyme (Millipore, Calif.); assay: Inhibition of Syk tyrosine phosphorylation activity (LANCE TR-FRET kinase assay)
Listed next: entries and their corresponding IC50.

Exam item: Recorded IC50 of `NC(=O)c1cc(F)c(N[C@@H]2CCCC[C@@H]2N)nc1Nc1ccc(-n2cccn2)cc1` , please.
Marked response: 1 to 10 nM

Exam item: Try `Cn1ccc2c(Nc3nc(N[C@@H]4CCCC(F)(F)[C@@H]4N)c(F)cc3C(N)=O)cccc21` next.
Marked response: 10 to 100 nM

Exam item: Also need NC(=O)c1cc(F)c(NC(CC(F)(F)F)C(N)=O)nc1Nc1cnc2ccccc2c1 (centres unmarked) , thanks.
Marked response: 10 to 100 nM

Exam item: Another molecule: `NC(=O)c1ccc(N[C@@H]2CCCC[C@@H]2N)nc1Nc1cccc(-n2cncn2)c1`
Marked response: 1 to 10 nM

Exam item: Subsequent entry: `NC(=O)c1ccc(N[C@@H]2CCCC[C@@H]2N)nc1Nc1cncc(-n2cccn2)c1`
Marked response: 1 to 10 nM

Exam item: Try this molecule next: `NC(=O)c1cc(F)c(N[C@H]2[C@@H](N)CCCC2(F)F)nc1Nc1cccc(Cl)c1`
Marked response: 1 to 10 nM

Exam item: How about this molecule: `CCC[C@@H](Nc1nc(Nc2ccc3ncccc3c2)c(C(N)=O)cc1F)C(N)=O`
Marked response: 10 to 100 nM

Exam item: Record: `CC[C@@H](Nc1ccc(C(N)=O)c(Nc2cnc3ccccc3c2)n1)C(N)=O`
Marked response: 1 to 10 nM
